Test system: E. coli (ΔtolC efflux-defective mutant, isogenic to ATCC 25922)
Assay summary: microbe, parasite or virus in culture
Format: cell-based
Experimental parameters: Escherichia coli, ATCC25922, read-out: MIC Ec ΔtolC
Endpoint: MIC (µg/mL)
I only need the number, in µg/mL, no unit after it.

Smiles: Nc1nc(Nc2ccc3nc(-c4ccc(F)cc4)cc(N)c3c2)cc(N2CCC(CO)CC2)n1
MIC (µg/mL): 16

Give MIC for CNCCN(C)c1cc(Nc2ccc3nc(-c4ccc(F)cc4)cc(N)c3c2)nc(N)n1
32

Please report the measured MIC for Nc1nc(Nc2ccc3nc(-c4ccc(F)cc4)cc(N)c3c2)cc(OCCO)n1
8

Give MIC for CCOc1cc(Nc2ccc3nc(-c4ccc(F)cc4)cc(N)c3c2)nc(N)n1
2

Entry CN(C)C1CCN(c2cc(Nc3ccc4nc(-c5ccc(F)cc5)cc(N)c4c3)nc(N)n2)CC1 needs its MIC filled in; supply it.
32

Kindly indicate its recorded MIC. Item: Nc1nc(Nc2ccc3nc(-c4ccc(F)cc4)cc(N)c3c2)cc(N2CCN(CCO)CC2)n1
32

Return reported MIC. Input compound: Nc1cc(-c2ccc(F)cc2)nc2ccc(Nc3cc(N4CCNCC4)ncn3)cc12
16

###

Test system: K. pneumonia (ATCC 13833, wild-type)
Assay summary: MIC on ESKAPE pathogens, K. pneumoniae
Endpoint: MIC Kp WT

Please review the entries below; each comes with its answer.
Molecule: Nc1nc(Nc2ccc3nc(-c4ccc(F)cc4)ccc3c2)cc(N2CCNCC2)n1
MIC Kp WT: 64 µg/mL
//
Molecule: Cc1cccc(-c2cc(Nc3ccc4nc(-c5ccc(F)cc5)cc(N)c4c3)nc(N)n2)c1 [Compound 1, reference compound]
MIC Kp WT: >128 µg/mL

Give the reported value of MIC Kp WT for this record: Nc1nc(Nc2ccc3nc(-c4ccc(F)cc4)cc(N)c3c2)cc(N2CCC(N)CC2)n1
>128 µg/mL

###

System: Trypanosoma cruzi Tulahuen LacZ (clone C4)
Assay summary: Trypanosoma cruzi growth on MRC-5 cells (CPRG)
Experimental parameters: MRC5, 168 h, read-out: IC50 Trypanosoma cruzi
Endpoint: pIC50
Kindly note that pIC50 refers to -log10 of the concentration in mol/L and answer with the value alone.

Read off the recorded pIC50 for O=C(Cn1ccnc1[N+](=O)[O-])NCc1ccccc1
5.77

###

Test system: E. coli (ATCC 25922, wild-type)
Assay summary: MIC on ESKAPE pathogens, E. coli wild-type
Type: cell-based
Experimental parameters: Escherichia coli, ATCC25922; E. coli ATCC 25922, wild-type; read-out: MIC Ec WT
Endpoint: MIC (µg/mL)
Write the value in µg/mL as a bare number.

Some compounds with recorded MIC:
Compound: CC(C)N1CCN(c2cc(Nc3ccc4nc(-c5ccc(F)cc5)cc(N)c4c3)nc(N)n2)CC1 [Compound 8d]
MIC / µg/mL: 64
--
Compound: Nc1nc(Nc2ccc3nc(-c4ccc(F)cc4)cc(N)c3c2)cc(OCCO)n1 [Compound 9b]
MIC / µg/mL: 32
--
Compound: Nc1nc(Nc2ccc3nc(-c4ccc(F)cc4)cc(N)c3c2)cc(N2CCC(O)CC2)n1 [Compound 8p]
MIC / µg/mL: 64
--
Compound: CN1CCCC(COc2cc(Nc3ccc4nc(-c5ccc(F)cc5)cc(N)c4c3)nc(N)n2)C1 (centres unmarked) [Compound 9c]
MIC / µg/mL: 64
--
Compound: CCOc1cc(Nc2ccc3nc(-c4ccc(F)cc4)cc(N)c3c2)nc(N)n1 [Compound 9a]
MIC / µg/mL: 64

Could you now look at the following compound, please?
Identify measured MIC associated with Nc1nc(Nc2ccc3nc(-c4ccc(F)cc4)cc(N)c3c2)cc(N2CCC(CO)CC2)n1 [Compound 8n]
64

###

Measured MIC of individual entries
System: M. tuberculosis strain H37Rv (ATCC 25618)
Assay summary: MIC on M. tuberculosis by resazurin reduction microplate assay (REMA)
Format: cell-based
Experimental parameters: Mycobacterium tuberculosis, M. tuberculosis H37Rv, read-out: MIC Mtb

Before answering, review these 3 worked examples.
Molecule: Nc1nc(Nc2ccc3nc(-c4ccc(F)cc4)cc(N)c3c2)cc(=O)[nH]1 [Compound 12]
MIC: 9.2 µg/mL
--
Molecule: CN(CCO)c1cc(Nc2ccc3nc(-c4ccc(F)cc4)cc(N)c3c2)nc(N)n1 [Compound 8l]
MIC: 9.8 µg/mL
--
Molecule: Nc1nc(Nc2ccc3nc(-c4ccc(F)cc4)cc(N)c3c2)cc(N2CCNCC2)n1 [Compound 8a]
MIC: > 43 µg/mL

Please report the measured MIC for CCOc1cc(Nc2ccc3nc(-c4ccc(F)cc4)cc(N)c3c2)nc(N)n1 [Compound 9a] tested on M. tuberculosis strain H37Rv (ATCC 25618).
3.4 µg/mL

Jot down MIC (M. tuberculosis strain H37Rv (ATCC 25618)) of CC(C)(C)OC(=O)NCC1CCN(c2cc(Nc3ccc4nc(-c5ccc(F)cc5)cc(N)c4c3)nc(N)n2)CC1 [Compound 8g] .
6.8 µg/mL

Find MIC for Cc1cccc(-c2cc(Nc3ccc4nc(-c5ccc(F)cc5)cc(N)c4c3)nc(N)n2)c1 [Compound 1, reference compound] on M. tuberculosis strain H37Rv (ATCC 25618) and write it down.
2.6 µg/mL

Answer with MIC of Nc1cc(-c2ccc(F)cc2)nc2ccc(Nc3cc(N4CCNCC4)ncn3)cc12 [Compound 15] measured for M. tuberculosis strain H37Rv (ATCC 25618).
> 42 µg/mL

Output reported MIC of the molecule Nc1nc(Nc2ccc3nc(-c4ccc(F)cc4)ccc3c2)cc(N2CCNCC2)n1 [Compound 21] on M. tuberculosis strain H37Rv (ATCC 25618).
22.3 µg/mL

###

Tested on: E. coli (D22, lpxC mutant, drug-hypersensitive)
Assay summary: microbe, parasite or virus in culture
Type: cell-based
Experimental parameters: Escherichia coli, read-out: MIC Ec D22
Let's look at some molecules and their measured MIC.
Give just the number in µg/mL; leave the unit off.

Worked examples follow.
Molecule: CNCCN(C)c1cc(Nc2ccc3nc(-c4ccc(F)cc4)cc(N)c3c2)nc(N)n1
Endpoint: MIC
Units of measure: µg/mL
Readout number: 32

Molecule: Nc1nc(Nc2ccc3nc(-c4ccc(F)cc4)cc(N)c3c2)cc(N2CCN(CCO)CC2)n1
Endpoint: MIC
Units of measure: µg/mL
Readout number: 32

Molecule: Nc1nc(Nc2ccc3nc(-c4ccc(F)cc4)cc(N)c3c2)cc(N2CCC(N)CC2)n1
Endpoint: MIC
Units of measure: µg/mL
Readout number: 8

Molecule: NCC1CCN(c2cc(Nc3ccc4nc(-c5ccc(F)cc5)cc(N)c4c3)nc(N)n2)CC1
Endpoint: MIC
Units of measure: µg/mL
Readout number: 8

Molecule: Nc1cc(-c2ccc(F)cc2)nc2ccc(Nc3cc(N4CCNCC4)ncn3)cc12
Endpoint: MIC
Units of measure: µg/mL
Readout number: 16

Check the records and state MIC for CN(CCO)c1cc(Nc2ccc3nc(-c4ccc(F)cc4)cc(N)c3c2)nc(N)n1
8

For the molecule CN1CCCC(COc2cc(Nc3ccc4nc(-c5ccc(F)cc5)cc(N)c4c3)nc(N)n2)C1 (stereo not drawn) , report MIC.
32

Name the recorded MIC of the molecule listed here: Nc1nc(Nc2ccc3nc(-c4ccc(F)cc4)ccc3c2)cc(N2CCNCC2)n1
16

Return value of MIC for input Nc1ccc2nc(-c3ccc(F)cc3)cc(N)c2c1 , no commentary.
64

Provide one value: measured MIC of Nc1nc(Nc2ccc3nc(-c4ccc(F)cc4)cc(N)c3c2)cc(N2CCC(O)CC2)n1
32

###

Assay summary: Cytotoxicity on the MRC-5 cell line (resazurin)
Format: cell-based
Experimental parameters: human, MRC-5SV2 cells; MRC-5SV2, 3 days, resazurin
satisfied if IC50 at 3 days is below 4 µM. not satisfied if not; exact matches included in not satisfied.

Molecule: Nc1nc(Nc2ccc3nc(-c4ccc(F)cc4)cc(N)c3c2)cc(N2CCNCC2)n1
Class: not satisfied

Identify whether the molecule CN(C)c1cc(Nc2ccc3nc(-c4ccc(F)cc4)cc(N)c3c2)nc(N)n1 records IC50 at 3 days below 4 µM.
satisfied

Criterion: IC50 at 3 days strictly below 4 µM. Is it met by Nc1nc(Cl)cc(Nc2ccc3nc(-c4ccc(F)cc4)cc(N)c3c2)n1 ?
satisfied

I wonder whether CNCCN(C)c1cc(Nc2ccc3nc(-c4ccc(F)cc4)cc(N)c3c2)nc(N)n1 has IC50 at 3 days below 4 µM. Can you tell?
not satisfied

Given the entry CCOc1cc(Nc2ccc3nc(-c4ccc(F)cc4)cc(N)c3c2)nc(N)n1 , would its reported IC50 at 3 days be below 4 µM?
satisfied

###

Measured target: UniProt:A0QYD6
Sequence (A0QYD6 1-457): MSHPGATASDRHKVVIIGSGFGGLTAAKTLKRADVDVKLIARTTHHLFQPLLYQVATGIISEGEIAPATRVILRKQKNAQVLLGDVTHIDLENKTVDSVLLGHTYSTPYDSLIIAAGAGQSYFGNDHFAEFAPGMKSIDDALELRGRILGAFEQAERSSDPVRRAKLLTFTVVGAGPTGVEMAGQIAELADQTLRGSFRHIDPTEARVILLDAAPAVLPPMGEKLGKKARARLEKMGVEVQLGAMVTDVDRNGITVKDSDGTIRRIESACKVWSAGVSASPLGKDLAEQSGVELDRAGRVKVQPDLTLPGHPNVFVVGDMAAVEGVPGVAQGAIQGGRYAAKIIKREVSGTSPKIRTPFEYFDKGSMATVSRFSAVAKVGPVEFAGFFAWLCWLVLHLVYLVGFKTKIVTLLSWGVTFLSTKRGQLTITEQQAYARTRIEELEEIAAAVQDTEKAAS
Assay summary: Inhibition of MsNDH-2 (NADH oxidation with menadione, absorbance at 340 nm)
Assay type: biochemical, M. smegmatis
Experimental parameters: 95% confidence interval in parentheses; 50 nM enzyme, 50 μM menadione; >100: no significant inhibition at 100 μM
Endpoint: pIC50
# reply with the number alone; pIC50 is -log10 of concentration in mol/L

Molecule: CN1CCN(c2cc(Nc3ccc4nc(-c5ccc(F)cc5)cc(N)c4c3)nc(N)n2)CC1
pIC50: 4.40

Look up pIC50 of Cc1cccc(-c2cc(Nc3ccc4nc(-c5ccc(F)cc5)cc(N)c4c3)nc(N)n2)c1 [Compound 1, reference compound] and report it.
5.80

Using known records, supply pIC50 for Nc1nc(Nc2ccc3nc(-c4ccc(F)cc4)cc(N)c3c2)cc(N2CCNCC2)n1
5.01

Specify pIC50 for CN(CCO)c1cc(Nc2ccc3nc(-c4ccc(F)cc4)cc(N)c3c2)nc(N)n1 and stop.
4.80
